Recorded values, source ChEMBL document CHEMBL4354830.

molecular target: Bromodomain-containing protein 2 (Homo sapiens); assay: Displacement of tetra-acetylated histone H4 peptide (1-21) from BRD2 BD1 (unknown origin) incubated for 30 mins followed by further incubation with tetra-acetylated histone H4 peptide (1-21) for 30 mins by Alphascreen assay
Sequence (P25440 whole entry): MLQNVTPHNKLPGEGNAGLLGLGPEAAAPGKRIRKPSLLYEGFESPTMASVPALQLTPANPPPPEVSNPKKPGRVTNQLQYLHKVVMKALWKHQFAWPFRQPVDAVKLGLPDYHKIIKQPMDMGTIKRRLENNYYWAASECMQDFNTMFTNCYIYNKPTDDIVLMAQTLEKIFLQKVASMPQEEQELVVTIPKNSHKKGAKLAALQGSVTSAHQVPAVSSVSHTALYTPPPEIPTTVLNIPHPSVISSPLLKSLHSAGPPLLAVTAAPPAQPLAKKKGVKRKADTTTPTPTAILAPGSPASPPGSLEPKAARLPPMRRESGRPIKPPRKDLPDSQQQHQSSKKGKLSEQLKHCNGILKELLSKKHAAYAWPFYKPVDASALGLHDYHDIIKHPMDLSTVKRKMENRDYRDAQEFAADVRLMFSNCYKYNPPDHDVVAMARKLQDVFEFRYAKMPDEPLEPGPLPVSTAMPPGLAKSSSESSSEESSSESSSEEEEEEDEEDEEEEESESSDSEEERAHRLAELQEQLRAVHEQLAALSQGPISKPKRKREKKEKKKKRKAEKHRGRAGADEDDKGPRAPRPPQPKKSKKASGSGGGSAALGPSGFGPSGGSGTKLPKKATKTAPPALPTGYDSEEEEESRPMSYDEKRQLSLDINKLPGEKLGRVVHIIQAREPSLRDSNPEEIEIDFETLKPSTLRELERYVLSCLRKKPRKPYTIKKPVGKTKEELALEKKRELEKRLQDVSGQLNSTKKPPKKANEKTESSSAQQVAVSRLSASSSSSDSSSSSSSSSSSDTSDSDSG
MEASURE: IC50 (µM)

{"STRUCTURE STRING": "COc1ccccc1S(=O)(=O)Nc1ccc2c3c(cc(-n4cnc(C)c4)nc13)C(=O)N2C", "MEASURE": "IC50", "RESULT UNITS": "µM", "REPORTED RESULT": 8.95}

----------
molecular target: Bromodomain-containing protein 4 (Homo sapiens, UniProt O60885); assay: Displacement of tetra-acetylated histone H4 peptide (1-21) from recombinant human N-terminal His-tagged BRD4 BD1 (44 to 170 residues) expressed in Escherichia coli incubated for 30 mins followed by further incubation with tetra-acetylated histone H4 peptide (1-21) for 30 mins by Alphascreen assay
Recorded IC50 values for a group of compounds are listed next.
MEASURE: IC50 (nM)

{"STRUCTURE STRING": "COc1ccccc1S(=O)(=O)Nc1ccc2c3c(cc(NCCN4CCCCC4)nc13)C(=O)N2C", "REPORTED RESULT": 328}
{"STRUCTURE STRING": "CCOC(=O)CC1CCN(c2cc3c4c(ccc(NS(=O)(=O)c5ccccc5OC)c4n2)N(C)C3=O)CC1", "REPORTED RESULT": 709}
{"STRUCTURE STRING": "COc1ccccc1S(=O)(=O)Nc1ccc2c3c(cc(NC(C)(C)C)nc13)C(=O)N2C", "REPORTED RESULT": 573}
{"STRUCTURE STRING": "CCCn1cc(-c2cc3c4c(ccc(NS(=O)(=O)c5ccccc5OC)c4c2)N(C)C3=O)cn1", "REPORTED RESULT": 43.7}
{"STRUCTURE STRING": "COc1ccccc1S(=O)(=O)Nc1ccc2c3c(cc(-c4cnn(C)c4)cc13)C(=O)N2C", "REPORTED RESULT": 17.4}
{"STRUCTURE STRING": "CN1C(=O)c2cc(Cl)nc3c(NS(=O)(=O)c4ccc(Cl)cc4)ccc1c23", "REPORTED RESULT": 2600}
{"STRUCTURE STRING": "COc1ccccc1S(=O)(=O)Nc1ccc2c3c(cc(NCC4CCN(C)CC4)nc13)C(=O)N2C", "REPORTED RESULT": 113}
{"STRUCTURE STRING": "COc1ccccc1S(=O)(=O)Nc1ccc2c3c(cc(NC4CC4)nc13)C(=O)N2C", "REPORTED RESULT": 271}
{"STRUCTURE STRING": "CN1CCN(c2cc3c4c(ccc(NS(=O)(=O)c5ccc(Cl)cc5)c4n2)N(C)C3=O)CC1", "REPORTED RESULT": 391}
{"STRUCTURE STRING": "CN1C(=O)c2cccc3c(NS(=O)(=O)c4ccc(F)cc4Cl)ccc1c23", "REPORTED RESULT": 91.3}
{"STRUCTURE STRING": "COc1ccccc1S(=O)(=O)Nc1ccc2c3c(cc(-c4ccoc4)nc13)C(=O)N2C", "REPORTED RESULT": 37}
{"STRUCTURE STRING": "COc1ccccc1S(=O)(=O)Nc1ccc2c3c(cc(N4CCN(C)CC4)nc13)C(=O)N2C", "REPORTED RESULT": 100}
{"STRUCTURE STRING": "CN1C(=O)c2ccnc3c(NS(=O)(=O)c4ccc(Cl)cc4)ccc1c23", "REPORTED RESULT": 3470}
{"STRUCTURE STRING": "CN1C(=O)c2cc(-c3cnn(C4CC4)c3)cc3c(NS(=O)(=O)c4ccc(Cl)cc4)ccc1c23", "REPORTED RESULT": 666}
{"STRUCTURE STRING": "COc1ccccc1S(=O)(=O)Nc1ccc2c3c(cc(-n4cnc(C)c4)nc13)C(=O)N2C", "REPORTED RESULT": 87.7}
{"STRUCTURE STRING": "COc1ccccc1S(=O)(=O)Nc1ccc2c3c(cc(Cl)nc13)C(=O)N2C", "REPORTED RESULT": 656}

----------
molecular target: Bromodomain-containing protein 4 (Homo sapiens, UniProt O60885); test: Binding affinity to recombinant human N-terminal His-tagged BRD4 BD1 (44 to 170 residues) expressed in Escherichia coli assessed as change in melting temperature at 10 uM by SYPRO Orange based differential scanning fluorimetry
Recorded ΔTm values for a group of compounds are listed next.

{"STRUCTURE STRING": "Cc1ccccc1S(=O)(=O)Nc1ccc2c3c(cccc13)C(=O)N2C", "ΔTm": "5.1 °C"}
{"STRUCTURE STRING": "CN1C(=O)c2cccc3c(NS(=O)(=O)c4cccs4)ccc1c23", "ΔTm": "4.02 °C"}
{"STRUCTURE STRING": "Cc1ccc(S(=O)(=O)Nc2ccc3c4c(ccnc24)C(=O)N3C)cc1", "ΔTm": "5.12 °C"}

----------
molecular target: Bromodomain-containing protein 4 (Homo sapiens); experiment: Displacement of tetra-acetylated histone H4 peptide (1-21) from recombinant human N-terminal His-tagged BRD4 BD2 (349 to 460 residues) expressed in Escherichia coli incubated for 30 mins followed by further incubation with tetra-acetylated histone H4 peptide (1-21) for 30 mins by Alphascreen assay
pIC50: −log10 of the molar value.
Recorded pIC50 values for a group of molecules are listed next.

{"STRUCTURE STRING": "COc1ccccc1S(=O)(=O)Nc1ccc2c3c(cc(NC(C)(C)C)nc13)C(=O)N2C", "pIC50": 5.68}
{"STRUCTURE STRING": "COc1cc(Cl)ccc1S(=O)(=O)Nc1ccc2c3c(cc(-c4cnn(C5CC5)c4)cc13)C(=O)N2C", "pIC50": 6.36}
{"STRUCTURE STRING": "CN1C(=O)c2cccc3c(NS(=O)(=O)c4ccc(Cl)cc4)ccc1c23", "pIC50": 5.57}
{"STRUCTURE STRING": "COc1ccccc1S(=O)(=O)Nc1ccc2c3c(ccnc13)C(=O)N2C", "pIC50": 5.34}
{"STRUCTURE STRING": "O=C1Nc2ccc(NS(=O)(=O)c3ccc(Cl)cc3)c3cccc1c23", "pIC50": 4.81}
{"STRUCTURE STRING": "COc1ccccc1S(=O)(=O)Nc1ccc2c3c(cc(NC4CC4)nc13)C(=O)N2C", "pIC50": 6.18}
{"STRUCTURE STRING": "COc1cc(Cl)ccc1S(=O)(=O)Nc1ccc2c3c(cccc13)C(=O)N2C", "pIC50": 5.46}
{"STRUCTURE STRING": "COc1ccccc1S(=O)(=O)Nc1ccc2c3c(cc(N4CCN(C)CC4)nc13)C(=O)N2C", "pIC50": 5.67}
{"STRUCTURE STRING": "COc1ccccc1S(=O)(=O)Nc1ccc2c3c(cc(-c4ccoc4)nc13)C(=O)N2C", "pIC50": 6.34}
{"STRUCTURE STRING": "CN1C(=O)c2cccc3c(NS(=O)(=O)c4cccc5cccnc45)ccc1c23", "pIC50": 6.58}
{"STRUCTURE STRING": "CN1C(=O)c2cccc3c(NS(=O)(=O)c4ccccc4)ccc1c23", "pIC50": 5.58}
{"STRUCTURE STRING": "CN1C(=O)c2cccc3c(NS(=O)(=O)c4ccc(F)cc4Cl)ccc1c23", "pIC50": 5.42}
{"STRUCTURE STRING": "COc1ccccc1S(=O)(=O)Nc1ccc2c3c(cc(-c4cnn(C)c4)nc13)C(=O)N2C", "pIC50": 6.54}
{"STRUCTURE STRING": "COc1ccccc1S(=O)(=O)Nc1ccc2c3c(cc(-c4cnn(C)c4)cc13)C(=O)N2C", "pIC50": 6.36}

----------
Recorded IC50 values for a group of compounds are listed next.
target: Bromodomain-containing protein 4 (Homo sapiens, UniProt O60885); assay: Displacement of tetra-acetylated histone H4 peptide (1-21) from recombinant human N-terminal His-tagged BRD4 BD1 (44 to 170 residues) expressed in Escherichia coli incubated for 30 mins followed by further incubation with tetra-acetylated histone H4 peptide (1-21) for 30 mins by Alphascreen assay

{"STRUCTURE STRING": "CN1C(=O)c2cccc3c(NS(=O)(=O)c4ccccc4)ccc1c23", "RESULT UNITS": "nM", "IC50": 709}
{"STRUCTURE STRING": "COc1ccccc1S(=O)(=O)Nc1ccc2c3c(cc(N4CCOCC4)nc13)C(=O)N2C", "RESULT UNITS": "nM", "IC50": 95.2}
{"STRUCTURE STRING": "Cc1cc(F)ccc1S(=O)(=O)Nc1ccc2c3c(cccc13)C(=O)N2C", "RESULT UNITS": "nM", "IC50": 810}
{"STRUCTURE STRING": "CN1C(=O)c2cccc3c(NS(=O)(=O)c4ccccc4Cl)ccc1c23", "RESULT UNITS": "nM", "IC50": 1530}
{"STRUCTURE STRING": "Cc1ccccc1S(=O)(=O)Nc1ccc2c3c(cccc13)C(=O)N2C", "RESULT UNITS": "nM", "IC50": 709}
